Test: ATG_EGR_CIS: Attagene CIS-FACTORIAL HepG2 Assay for human Early Growth Response 1 (EGR1) (AID 2282938)
Settings: HepG2 Attagene CIS-FACTORIAL EGR reporter mRNA; actives raise or lower the signal
Calls of active or inactive are those of the source. The calls were made as follows: active = hit-call score of the fitted dose curve at least 0.9, where 1 is the maximum; inactive = score below 0.9.
Possible outcomes: 1.0 = active, 0.0 = inactive

* O=C(C=Cc1ccccc1)OCc1ccccc1 | 0.0
* CCO[Si](C)(OCC)OCC | 0.0
* CC1=NC(C)OC1C (stereo not given) | 0.0
* NC(=O)OCC(COC(N)=O)c1ccccc1 | 0.0
* CCOc1ccc(N)c([N+](=O)[O-])c1 | 0.0
* CC(=O)c1ccc2c(c1)CCCC2 | 0.0
* CCCCC/C=C\C/C=C\CCCCCCCC(=O)OC | 1.0
* C=C(C)C(=O)OCCO | 0.0
* CC(C)CC(O)Cc1ccccc1 (stereo not given) | 0.0
* CC(=O)OCC(C)OC(C)=O (stereo not given) | 0.0
* C=C(C)C(=O)OCCOc1ccccc1 | 0.0
* CNC(=S)N(C)C | 0.0
* O=C(O)CC(C(=O)O)C(CC(=O)O)C(=O)O (stereo not given) | 0.0
* CN(C)c1ccc(N=Nc2ccccc2C(=O)O)cc1 | 1.0
* CC(C)CCCCCOC(=O)CCS | 0.0

---

Target: Paired box protein Pax-6 (Homo sapiens) (UniProt P26367)
Sequence (P26367 whole entry, looked up): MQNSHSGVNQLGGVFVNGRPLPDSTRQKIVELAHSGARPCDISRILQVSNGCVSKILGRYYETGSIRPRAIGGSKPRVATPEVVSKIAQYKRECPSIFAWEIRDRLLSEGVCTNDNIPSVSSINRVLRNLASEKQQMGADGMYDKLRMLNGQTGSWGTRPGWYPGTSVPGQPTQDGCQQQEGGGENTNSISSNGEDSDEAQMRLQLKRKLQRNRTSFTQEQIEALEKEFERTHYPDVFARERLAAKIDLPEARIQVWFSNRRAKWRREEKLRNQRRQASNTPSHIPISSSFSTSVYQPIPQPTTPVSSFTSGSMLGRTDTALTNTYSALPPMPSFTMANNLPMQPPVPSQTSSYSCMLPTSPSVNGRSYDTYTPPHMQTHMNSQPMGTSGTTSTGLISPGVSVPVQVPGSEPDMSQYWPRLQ
Experiment: ATG_Pax6_CIS: Attagene CIS-FACTORIAL HepG2 Assay for human Paired Box 6 (PAX6) (AID 2282956)
Conditions: HepG2 CIS-FACTORIAL PAX6 reporter transcription, RNA readout; actives raise or lower the signal
Activity calls are given as the source filed them. The calls were made as follows: active = hit-call score of the fitted dose curve at least 0.9, where 1 is the maximum; inactive = score below 0.9.
Possible outcomes: active, inactive

• CC(C)COC(=O)C=Cc1ccccc1 = inactive
• NNC(=O)c1cccc(C(=O)NN)c1 = inactive
• CCCCCCCCO[C@@H]1O[C@H](CO)[C@@H](O)[C@H](O)[C@H]1O = inactive
• O=C(c1ccc(O)cc1)c1ccc(O)cc1O = inactive
• [Cl][In]([Cl])[Cl] = inactive
• C=C[Si](OC(C)=O)(OC(C)=O)OC(C)=O = inactive
• Nc1cccc(C(F)(F)F)c1 = inactive
• CCc1ccc2c(c1)C(=O)c1ccccc1C2=O = inactive
• CC1(C)S[C@@H]2[C@H](NC(=O)COc3ccccc3)C(=O)N2[C@H]1C(=O)O = inactive
• CCCCCCCC/C=C\CCCCCCCC(=O)O = inactive
• OC1CCCC1 = inactive
• C=CC(=O)OCCOC(=O)C=C = active
• CC(=O)[C@H]1[C@H](C#N)C[C@H]2[C@@H]3CC=C4C[C@@H](O)CC[C@]4(C)[C@H]3CC[C@@]21C = inactive

---

Assay: CCTE_Shafer_MEA_acute_per_network_burst_spike_number_std: CCTE's Neural Acute Assay for Standard Deviation of Number of Spikes in a Network Burst, Shafer Lab (AID 2284020);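 also: fitted for decrease in spike-number SD versus DMSO so actives lower it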
The source made the active and inactive calls. Rule for the calls: active = hit-call score of the fitted dose curve at least 0.9, where 1 is the maximum; inactive = score below 0.9.
Property Measured: outcome

• C=C[Si](OC(C)=O)(OC(C)=O)OC(C)=O = inactive
• Nc1ccc(N)c(Cl)c1 = inactive
• CO[Si](OC)(OC)c1ccccc1 = inactive
• O=C1CCCN1CCO = inactive
• O=C(c1ccc(O)cc1)c1ccc(O)cc1O = inactive
• CCCCC(CC)COCC1CO1 (stereo not drawn) = inactive
• Nc1ncn([C@@H]2O[C@H](CO)[C@@H](O)[C@H]2O)c(=O)n1 = inactive
• CN1C(=O)N(C)C(O)C1O (stereo not drawn) = inactive

---

Test: BSK_KF3CT_SRB: Viability Assessment in the BioMAP Diversity Plus: KF3CT Assay (AID 2283069);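 also: total protein by sulforhodamine B staining as a cytotoxicity measure; read 24 h after compound addition; fitted for both signal gain and loss against DMSO baseline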
Conditions: primary human keratinocytes with fibroblasts
Activity calls are given as the source filed them. The calls were made as follows: active = hit-call score of the fitted dose curve at least 0.9, where 1 is the maximum; inactive = score below 0.9.
Possible outcomes: 1 (yes) = active, 0 (no) = inactive

• CC(C)(c1cc(Br)c(OCCO)c(Br)c1)c1cc(Br)c(OCCO)c(Br)c1 = 1 (yes)
• c1ccc2c(c1)ccc1cc3c(ccc4ccccc43)cc12 = 0 (no)
• CO[Si](OC)(OC)c1ccccc1 = 0 (no)
• CC(C)C(=O)C(C)C = 0 (no)
• CCOc1nc(F)cc2nc(S(=O)(=O)Nc3c(Cl)cccc3C(=O)OC)nn12 = 0 (no)
• O=C1CCCN1CCO = 0 (no)
• Nc1ccc(N)c(Cl)c1 = 0 (no)
• CC1OC1C1CCC2(C)OC2C1 (centres undefined) = 0 (no)
• c1ccc(-c2ccccn2)nc1 = 0 (no)
• C/C=C\C/C=C/CCCCCCCCOC(C)=O = 0 (no)
• O=C(c1ccc(O)cc1)c1ccc(O)cc1O = 0 (no)
• CN1C(=O)N(C)C(O)C1O (centres undefined) = 0 (no)
• O=C(Nc1ccccc1SSc1ccccc1NC(=O)c1ccccc1)c1ccccc1 = 0 (no)
• CCCCC(CC)COC(=O)c1ccccc1O (centres undefined) = 0 (no)
• CCO[Si](C)(OCC)OCC = 0 (no)
• O=c1c2ccccc2oc2ccccc12 = 0 (no)
• C=CCOCC(O)CCl (centres undefined) = 0 (no)
• C=C[Si](OC(C)=O)(OC(C)=O)OC(C)=O = 0 (no)
• C#CC1(O)CC[C@H]2[C@@H]3CCC4=CCCC[C@@H]4[C@H]3CC[C@@]21C (some centres undefined) = 1 (yes)
• CCCCCCCCCCCCCCCC[N+](C)(C)CC = 1 (yes)
• CCCCNc1ccc(NCCCC)c2c1C(=O)c1ccccc1C2=O = 0 (no)
• CCCCCCCCc1ccc(Nc2ccc(CCCCCCCC)cc2)cc1 = 0 (no)
• C=CC=CC=CCCCCC = 0 (no)
• C=CC(=O)OCC(Br)CBr (centres undefined) = 1 (yes)

---

Biological target: human Peroxisome Proliferator-activated Receptor alpha (PPARa), PPARA (gene 5465)
Test: ATG_PPARa_TRANS: Attagene TRANS-FACTORIAL HepG2 Assay for human Peroxisome Proliferator-activated Receptor alpha (PPARa) (AID 2283001);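 as to AC50: potency for gain of reporter signal over DMSO so agonist or activator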
Results filed as inconclusive are left out. Activity calls are given as the source filed them. The calls were made as follows: active = hit-call score of the fitted dose curve at least 0.9, where 1 is the maximum; inconclusive = response in the unintended direction; inactive = score below 0.9.
Property Measured: AC50

- CC(C)(C)C1CCCCC1=O (stereo not given): inactive
- CCN(CC)c1ccc(C(=O)c2ccccc2C(=O)O)c(O)c1: inactive
- O=C(O)c1cc(Cl)cc([N+](=O)[O-])c1Cl: inactive
- O=C(O)CCCCCCCCCC(=O)O: inactive
- C=C(C)C(=O)OCC(C)C: inactive
- C=CC(=O)OCCOC1C2CCC1C1CC=CC12 (stereo not given): inactive
- N=c1ccn2c(n1)O[C@H]1[C@H](O)[C@@H](CO)O[C@H]12: inactive
- CC(=O)[C@H]1[C@H](C#N)C[C@H]2[C@@H]3CC=C4C[C@@H](O)CC[C@]4(C)[C@H]3CC[C@@]21C: inactive
- CC=CCO: inactive
- CC(C)CCCCCOC(=O)CCS: 9.41 µM (active)
- O=c1c2ccccc2oc2ccccc12: inactive
- CCOc1ccc(N)c([N+](=O)[O-])c1: inactive
- Cc1ccc(N)c([N+](=O)[O-])c1: inactive
- COc1cc(NC(=O)CC(C)=O)c(OC)cc1Cl: inactive
- O=C(O)CC(C(=O)O)C(CC(=O)O)C(=O)O (stereo not given): inactive
- O=C1CCCC(=O)O1: inactive
- O=c1[nH]nc(-c2ccc([N+](=O)[O-])o2)o1: inactive
- CC(C)(C)c1ccc(OC(=O)c2ccccc2O)cc1: inactive
- C=CC(=O)OCC(Br)CBr (stereo not given): 144 µM (active)
- O=C(c1ccc(O)cc1)c1ccc(O)cc1O: inactive
- S=C(NC1CCCCC1)NC1CCCCC1: inactive
- CCCCCCCC[N+](C)(CCCCCCCC)CCCCCCCC: inactive
- Nc1ncn([C@@H]2O[C@H](CO)[C@@H](O)[C@H]2O)c(=O)n1: inactive
- CN1C(=O)N(C)C(O)C1O (stereo not given): inactive
- C/C=C\C/C=C/CCCCCCCCOC(C)=O: inactive
- CCCCCCCCC(=O)OCC: inactive
- CCCCC(CC)COC(=O)c1ccccc1 (stereo not given): inactive
- CCCCCCCOC(=O)CCC: inactive
- CC1=NN(c2cc(S(=O)(=O)O)ccc2Cl)C(=O)C1N=Nc1ccccc1 (stereo not given): inactive
- NC(=O)C1CO1 (stereo not given): inactive
- CCOC(=O)Cc1cccc2ccccc12: inactive
- CCc1nccnc1C: inactive
- CC(C)CCCC(C)CC=O (stereo not given): 45.8 µM (active)
- CCC(CO)CO: inactive
- CCCc1ccc(OC)cc1: inactive
- Cc1cccc(N(C)C(=S)Oc2ccc3ccccc3c2)c1: inactive
- C(=CC=Nc1ccccc1)C=CNc1ccccc1: inactive
- Cc1ccc(N/N=c2\c(=O)cc/c(=N/Nc3ccc(S(=O)(=O)O)cc3)c2=O)c(C)c1: inactive
- CC(CC=O)CCCC(C)(C)O (stereo not given): inactive
- CC/C=C\CCOC(=O)CCCCC: inactive
- O=C(Nc1cccc(C(F)(F)F)c1)c1cc(Br)cc(Br)c1O: 1.58 µM (active)
- CCCCCCCCCCCCCCCC[N+](C)(C)CC: 13.3 µM (active)
- NC(=O)OCC(COC(N)=O)c1ccccc1: inactive
- C[Si](C)(C)O[Si](O)(O)O: inactive
- C=CCOCC(O)CCl (stereo not given): inactive
- CCCCOCCOC(=O)COc1nc(Cl)c(Cl)cc1Cl: inactive
- CC(=O)c1ccc2c(c1)CCCC2: inactive
- C[C@]12C=CC(=O)C=C1CC[C@@H]1[C@@H]2[C@@H](O)C[C@@]2(C)[C@H]1CC[C@]2(O)C(=O)CO: inactive
- CCCCCCCCCCOS(=O)(=O)O: 27.6 µM (active)
- O=c1[nH]c(=O)c2[nH]c(=O)[nH]c2[nH]1: inactive
- CC(C)COC(=O)C=Cc1ccccc1: inactive
- COC(=O)/C=C/C(C)=C\C=C\C(C)=C\C=C\C=C(C)\C=C\C=C(C)\C=C\C(=O)O: inactive
- CCCCCCC1(C)CCC(=O)O1 (stereo not given): inactive
- Nc1nc2ccccc2[nH]1: inactive
- Cc1ccc(C(C)(C)C)cc1: inactive
- Nc1cccc(C(F)(F)F)c1: inactive
- COCCCOCCCOC: inactive
- Cc1ccc(C(C)c2ccc(C)c(C)c2)cc1C: inactive
- NC(=O)c1ccccc1O: inactive
- CC(C)=CCCC(C)C=O (stereo not given): inactive
